The values you see were collected from ChEMBL document CHEMBL4433206.

Biological target: NAD-dependent protein deacetylase sirtuin-1 (Homo sapiens, UniProt Q96EB6)
Sequence (Q96EB6 whole entry): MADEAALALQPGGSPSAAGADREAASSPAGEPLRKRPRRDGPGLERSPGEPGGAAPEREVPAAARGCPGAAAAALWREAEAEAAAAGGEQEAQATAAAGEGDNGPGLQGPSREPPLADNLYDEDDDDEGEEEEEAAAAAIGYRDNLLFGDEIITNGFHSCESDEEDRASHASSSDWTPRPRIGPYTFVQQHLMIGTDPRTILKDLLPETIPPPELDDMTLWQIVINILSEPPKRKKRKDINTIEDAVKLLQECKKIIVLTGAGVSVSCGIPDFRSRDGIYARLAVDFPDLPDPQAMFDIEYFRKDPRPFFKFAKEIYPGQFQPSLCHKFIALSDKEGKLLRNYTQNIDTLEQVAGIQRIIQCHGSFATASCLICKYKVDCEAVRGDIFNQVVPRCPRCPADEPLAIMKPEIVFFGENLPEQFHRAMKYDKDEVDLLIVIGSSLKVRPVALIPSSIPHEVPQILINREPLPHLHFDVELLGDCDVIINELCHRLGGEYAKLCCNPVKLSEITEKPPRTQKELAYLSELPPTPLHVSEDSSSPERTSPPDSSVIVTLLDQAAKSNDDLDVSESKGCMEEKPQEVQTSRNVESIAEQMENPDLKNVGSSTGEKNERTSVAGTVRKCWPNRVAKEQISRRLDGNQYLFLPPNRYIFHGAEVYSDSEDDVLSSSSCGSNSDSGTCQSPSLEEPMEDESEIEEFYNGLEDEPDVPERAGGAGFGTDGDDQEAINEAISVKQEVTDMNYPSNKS
MEASURED_PROPERTY: pIC50
Kindly note that pIC50 refers to -log10 of the concentration in mol/L and answer with the value alone.

// below: answered molecules
[
  {
    "ENTRY_SMILES": "CCCCCCNC(=S)NCCCC[C@H](NC(=O)OCc1ccccc1)C(=O)Nc1ccccc1",
    "REPORTED_MEASUREMENT": 4.52
  },
  {
    "ENTRY_SMILES": "CCCCCCCCNC(=S)NCCCC[C@H](NC(=O)OCc1ccccc1)C(=O)Nc1ccccc1",
    "REPORTED_MEASUREMENT": 4.96
  }
]

Entry `CCCCCCCNC(=S)NCCCC[C@H](NC(=O)OCc1ccccc1)C(=O)Nc1ccccc1` — recorded pIC50 = 4.66
